B1: tRNA (parent)
chain: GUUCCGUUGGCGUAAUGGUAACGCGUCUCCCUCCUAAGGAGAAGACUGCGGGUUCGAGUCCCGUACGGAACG

- Variants of: B1
- test: yeast fitness relative to wild type (ratio to wild type); higher = fitter; tRNA-Arg(CCU), competitive growth, 37 C, YPD
Variants at the floor of the assay were thinned out.
Exercise: state measured yeast fitness for each of the variants provided.
// keep it numeric: no unit symbol after the value

**Q:** Specify measured yeast fitness for C22U C29A .
**A:** 0.543

**Q:** Tell me yeast fitness reported for C60G G67A
**A:** 0.584

**Q:** Given the variant G18A A21C U32G , write its reported yeast fitness.
**A:** 0.614

**Q:** Please report yeast fitness for the following variant: A45U C66U
**A:** 0.979

**Q:** Specify reported yeast fitness for the variant shown: G23C A42C A43C
**A:** 0.575

**Q:** # return recorded yeast fitness for input A37C C49U
**A:** 0.848

**Q:** Kindly indicate its recorded yeast fitness. Item: A21G C31U C49U
**A:** 0.97

**Q:** Tell me its yeast fitness given C22G U32A as the entry.
**A:** 0.71

**Q:** Using the record for C27U G52C , state its measured yeast fitness.
**A:** 0.7

**Q:** Consider the variant C22A C24U C30U C31G and give its recorded yeast fitness.
**A:** 0.531

**Q:** Report yeast fitness for C5A U16G A69C
**A:** 0.69

**Q:** Specify reported yeast fitness for the variant shown: C34G G51A C66U
**A:** 0.649

**Q:** State its yeast fitness: G48A C49G
**A:** 1.05

**Q:** Consider the variant C24U G56A C60A and give its recorded yeast fitness.
**A:** 0.594

**Q:** Identify measured yeast fitness associated with C34A A42G
**A:** 0.676

**Q:** For the variant U19A A45U C46U , give its measured yeast fitness value.
**A:** 1.07

**Q:** Annotate the variant A14G A42G C46G with its measured yeast fitness.
**A:** 0.517

**Q:** Consider the variant U3A C55U . State its measured yeast fitness.
**A:** 0.876

**Q:** Annotate the variant C5U C22A A36U with its measured yeast fitness.
**A:** 0.828

**Q:** # return recorded yeast fitness for entry A20C A70G
**A:** 0.925

**Q:** Annotate the variant C4A U13C G23C C34G A45G U53C U64A with its measured yeast fitness.
**A:** 0.675

**Q:** Using the record for A42C A45C G48A A65G , state its measured yeast fitness.
**A:** 0.671

**Q:** Give the reported value of yeast fitness for this record: A14G G48A C62A
**A:** 0.65
